Target or system human full-length BTK Kinase (Homo sapiens (Human)); recorded quantity pIC50.
pIC50: −log10 of the molar value.
endpoint.name: pIC50

{"molecule": "N#CN1CCCC(n2nc(-c3ccc(Sc4ccc(Cl)cc4)cc3)c(C(N)=O)c2N)C1 (stereo not shown)", "endpoint.name": "pIC50", "value": 9.13}
{"molecule": "NC(=O)c1c(-c2ccc(Oc3ncc(Cl)cc3F)cc2)nn([C@@H]2CCCN(C(=O)/C=C/C(F)F)C2)c1N", "endpoint.name": "pIC50", "value": 9.15}
{"molecule": "N#CN1CCCC(n2nc(-c3ccc(Oc4cc(F)c(F)cc4F)cc3)c(C(N)=O)c2N)C1 (stereo not shown)", "endpoint.name": "pIC50", "value": 8.07}
{"molecule": "NC(=O)c1c(-c2ccc(Oc3ncc(Cl)cc3F)cc2)nn([C@@H]2CCCN(C(=O)/C=C/CO)C2)c1N", "endpoint.name": "pIC50", "value": 7.31}

----------
Tested on: Human B cells
Assay: Human Primary B Cell Proliferation Assay (3H-thymidine incorporation, anti-human IgM stimulated)
Assay type: cell-based
Conditions: purified human B cells, 50 μg/mL anti-human IgM F(ab')2, 72 hours

{"smiles.input": "C=CC(=O)N1CCC[C@@H](n2nc(-c3ccc(Oc4ccc(F)cc4F)cc3)c(C(N)=O)c2N)C1", "IC50 (pM)": 630}

----------
Target: human full-length BTK Kinase (Homo sapiens (Human), UniProt Q06187)
Sequence (Q06187 whole entry): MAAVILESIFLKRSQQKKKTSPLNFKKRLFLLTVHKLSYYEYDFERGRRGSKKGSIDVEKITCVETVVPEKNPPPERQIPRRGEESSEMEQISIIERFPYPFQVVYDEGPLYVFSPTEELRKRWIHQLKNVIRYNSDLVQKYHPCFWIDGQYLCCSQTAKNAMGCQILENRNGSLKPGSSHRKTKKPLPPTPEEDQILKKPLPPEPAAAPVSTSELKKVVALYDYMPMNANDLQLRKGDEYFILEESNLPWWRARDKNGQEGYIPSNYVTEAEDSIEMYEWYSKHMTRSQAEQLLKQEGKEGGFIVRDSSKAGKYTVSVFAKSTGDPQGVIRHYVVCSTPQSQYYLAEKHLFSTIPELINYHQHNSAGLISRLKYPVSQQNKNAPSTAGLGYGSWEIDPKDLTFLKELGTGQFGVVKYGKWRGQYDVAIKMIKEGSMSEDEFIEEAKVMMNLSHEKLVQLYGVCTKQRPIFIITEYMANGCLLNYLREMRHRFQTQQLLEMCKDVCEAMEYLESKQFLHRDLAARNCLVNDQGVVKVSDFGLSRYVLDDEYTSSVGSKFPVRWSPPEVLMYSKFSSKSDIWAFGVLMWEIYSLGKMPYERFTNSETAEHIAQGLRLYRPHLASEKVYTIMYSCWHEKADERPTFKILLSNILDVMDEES
endpoint.name: log10 of IC50 (log10 of the value in nM)

{"compound": "NC(=O)c1c(-c2ccc(Oc3ccccc3)cc2)nn([C@@H]2CCCN(C(=O)/C=C/CO)C2)c1N [Example 129]", "value": 0.00}
{"compound": "N#CN1CCC[C@@H](n2nc(-c3ccc(Oc4ccc(Cl)cn4)cc3)c(C(N)=O)c2N)C1 [Example 110]", "value": 0.96}
{"compound": "N#CN1CCCC(n2nc(-c3ccc(Cc4cccc(F)c4)cc3)c(C(N)=O)c2N)C1 (single isomer, unassigned) [Example 79]", "value": 1.49}
{"compound": "N#CN1CCCC(n2nc(-c3ccc(Oc4cc(F)ccc4Cl)cc3)c(C(N)=O)c2N)C1 (stereo not shown) [Example 45]", "value": -0.09}
{"compound": "COc1ccccc1Oc1ccc(-c2nn(C3CCCN(C#N)C3)c(N)c2C(N)=O)cc1 (stereo not shown) [Example 65]", "value": 1.03}
{"compound": "CC/C=C/C(=O)N1CCC[C@@H](n2nc(-c3ccc(Oc4ccc(F)cc4F)cc3)c(C(N)=O)c2N)C1 [Example 143]", "value": 2.10}
{"compound": "Cc1ccc(Oc2ccc(-c3nn(C4CCCN(C#N)C4)c(N)c3C(N)=O)cc2)c(Cl)c1 (stereo not shown) [Example 38]", "value": 0.40}

----------
Target: human full-length BTK Kinase (Homo sapiens (Human))
pIC50: −log10 of the molar value.
endpoint.name: pIC50

{"compound": "NC(=O)c1c(-c2ccc(Oc3ccc(Cl)cn3)cc2)nn([C@@H]2CCCN(C(=O)/C=C/C(F)F)C2)c1N [Example 159]", "endpoint.name": "pIC50", "value": 8.89}
{"compound": "N#CN1CCCC(n2nc(-c3ccc(Cc4ccc(F)c(F)c4)cc3)c(C(N)=O)c2N)C1 (centres unmarked) [Example 83]", "endpoint.name": "pIC50", "value": 7.82}
{"compound": "Cc1ccc(Oc2ccc(-c3nn(C4CCCN(C#N)C4)c(N)c3C(N)=O)cc2)c(C)c1 (centres unmarked) [Example 23]", "endpoint.name": "pIC50", "value": 8.04}
{"compound": "N#CN1CCCC(n2nc(-c3ccc(Oc4ccc(F)cc4F)cc3)c(C(N)=O)c2N)C1 (single isomer, unassigned) [Example 26]", "endpoint.name": "pIC50", "value": 7.76}
{"compound": "N#CN1CCCC(n2nc(-c3ccc(Cc4cccc(F)c4)cc3)c(C(N)=O)c2N)C1 (single isomer, unassigned) [Example 78]", "endpoint.name": "pIC50", "value": 8.85}
{"compound": "N#CN1CCCC(n2nc(-c3ccc(Cc4ccc(F)cc4F)cc3)c(C(N)=O)c2N)C1 (single isomer, unassigned) [Example 81]", "endpoint.name": "pIC50", "value": 8.24}
{"compound": "N#CN1CCCC(n2nc(-c3ccc(Oc4cc(Cl)ccc4Cl)cc3)c(C(N)=O)c2N)C1 (centres unmarked) [Example 55]", "endpoint.name": "pIC50", "value": 8.66}
{"compound": "N#CN1CCCC(n2nc(-c3ccc(Cc4ccc(F)cc4F)cc3)c(C(N)=O)c2N)C1 (single isomer, unassigned) [Example 82]", "endpoint.name": "pIC50", "value": 6.90}
{"compound": "N#CN1CCCC(n2nc(-c3ccc(Cc4ccc(F)c(F)c4)cc3)c(C(N)=O)c2N)C1 (single isomer, unassigned) [Example 85]", "endpoint.name": "pIC50", "value": 6.67}
{"compound": "N#CN1CCCC(n2nc(-c3cccc(Cc4ccc(Cl)cc4)c3)c(C(N)=O)c2N)C1 (centres unmarked) [Example 92]", "endpoint.name": "pIC50", "value": 7.13}
{"compound": "N#CN1CCCC(n2nc(-c3ccc(Cc4ccc(F)c(F)c4)cc3)c(C(N)=O)c2N)C1 (single isomer, unassigned) [Example 84]", "endpoint.name": "pIC50", "value": 8.25}
{"compound": "NC(=O)c1c(-c2ccc(Oc3cccc(C(F)(F)F)n3)cc2)nn([C@@H]2CCCN(C(=O)/C=C/C(F)F)C2)c1N [Example 163]", "endpoint.name": "pIC50", "value": 8.89}
{"compound": "N#C/C=C/C(=O)N1CCC[C@@H](n2nc(-c3ccc(Oc4ccc(Cl)cc4)cc3)c(C(N)=O)c2N)C1 [Example 135]", "endpoint.name": "pIC50", "value": 8.92}
{"compound": "Cc1ccc(Oc2ccc(-c3nn(C4CCCN(C#N)C4)c(N)c3C(N)=O)cc2)nc1 (centres unmarked) [Example 112]", "endpoint.name": "pIC50", "value": 7.78}
{"compound": "NC(=O)c1c(-c2ccc(Oc3ccc(F)cc3F)cc2)nn([C@@H]2CCCN(C(=O)/C=C/CCO)C2)c1N [Example 141]", "endpoint.name": "pIC50", "value": 7.24}
{"compound": "C/C=C/C(=O)N1CCCC(n2nc(-c3ccc(Oc4ccccc4)cc3)c(C(N)=O)c2N)C1 (centres unmarked) [Example 128]", "endpoint.name": "pIC50", "value": 8.35}
{"compound": "N#CN1CCCC(n2nc(-c3ccc(Cc4ccc(F)cc4F)cc3)c(C(N)=O)c2N)C1 (centres unmarked) [Example 80]", "endpoint.name": "pIC50", "value": 7.81}
{"compound": "C=C(C)C(=O)N1CCC[C@@H](n2nc(-c3ccc(Oc4ccc(F)cc4F)cc3)c(C(N)=O)c2N)C1 [Example 139]", "endpoint.name": "pIC50", "value": 6.61}
{"compound": "N#CN1CCCC(n2nc(-c3ccc(Oc4cc(Cl)cc(Cl)c4)cc3)c(C(N)=O)c2N)C1 (centres unmarked) [Example 60]", "endpoint.name": "pIC50", "value": 8.32}
{"compound": "NC(=O)c1c(-c2ccc(Oc3ncc(Cl)cc3F)cc2)nn([C@@H]2CCCN(C(=O)/C=C/CF)C2)c1N [Example 156]", "endpoint.name": "pIC50", "value": 8.85}
{"compound": "CC(C)c1ccc(Oc2cccc(-c3nn(C4CCCN(C#N)C4)c(N)c3C(N)=O)c2)cc1 (centres unmarked) [Example 100]", "endpoint.name": "pIC50", "value": 7.79}
{"compound": "Cc1cc(F)ccc1Oc1ccc(-c2nn(C3CCCN(C#N)C3)c(N)c2C(N)=O)cc1 (single isomer, unassigned) [Example 33]", "endpoint.name": "pIC50", "value": 7.62}
{"compound": "N#CN1CCC[C@H](n2nc(-c3ccc(Oc4ncc(Cl)cc4F)cc3)c(C(N)=O)c2N)C1 [Example 119]", "endpoint.name": "pIC50", "value": 7.22}
{"compound": "CC(C)Oc1ccc(Oc2ccc(-c3nn(C4CCCN(C#N)C4)c(N)c3C(N)=O)cc2)cc1 (centres unmarked) [Example 44]", "endpoint.name": "pIC50", "value": 7.61}
{"compound": "N#CCN1CCCC(n2nc(-c3ccc(Oc4ccccc4)cc3)c(C(N)=O)c2N)C1 (centres unmarked) [Example 4]", "endpoint.name": "pIC50", "value": 7.46}
{"compound": "N#C/C=C/C(=O)N1CCC[C@@H](n2nc(-c3ccc(Oc4cccc(C(F)(F)F)n4)cc3)c(C(N)=O)c2N)C1 [Example 166]", "endpoint.name": "pIC50", "value": 8.66}
{"compound": "C=CC(=O)N1CCC[C@@H](n2nc(-c3ccc(Oc4cccc(C(F)(F)F)n4)cc3)c(C(N)=O)c2N)C1 [Example 161]", "endpoint.name": "pIC50", "value": 8.92}
{"compound": "Cc1cccc(Cc2ccc(-c3nn(C4CCCN(C#N)C4)c(N)c3C(N)=O)cc2)c1 (centres unmarked) [Example 68]", "endpoint.name": "pIC50", "value": 8.72}
{"compound": "N#CN1CCCC(n2nc(-c3ccc(Sc4ccccc4)cc3)c(C(N)=O)c2N)C1 (centres unmarked) [Example 125]", "endpoint.name": "pIC50", "value": 9.40}
